- Target System: T1, Cynomolgus CD3εδ Fc heterodimer (Cy CD3ε Fc + CD3δ Fc-HIS) (cynomolgus, UniProt Q95LI5 22-117; Q95LI8 22-100)
- T1 construct: range 22-117;range 22-100; Made in HEK 293 cells with a heterologous signal peptide; also called Cy CD3εδ-Fc; cyno CD3εδ Fc; not shown: Fc; Fc followed by HIS tag
- T1 sequence (Q95LI5 22-117, stated change not applied, form in doubt, chain 1 of 2): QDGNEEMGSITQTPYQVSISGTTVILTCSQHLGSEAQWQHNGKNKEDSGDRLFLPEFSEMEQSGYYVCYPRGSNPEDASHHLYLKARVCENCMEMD
- T1 sequence (Q95LI8 22-100, stated change not applied, form in doubt, chain 2 of 2): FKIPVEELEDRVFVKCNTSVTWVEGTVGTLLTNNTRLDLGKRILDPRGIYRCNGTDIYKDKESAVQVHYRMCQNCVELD
- Test Name: BLI (Octet), CD3εδ Fc on AHC sensor, 100 nM Fab
Endpoint: Kd (nM)
API: value field is a number in nM; no unit string.

{"Binder": "Antibody No. V009 (ADI-70326) Fab (Fab, V domains shown, Fab by papain digestion of the IgG1) VH: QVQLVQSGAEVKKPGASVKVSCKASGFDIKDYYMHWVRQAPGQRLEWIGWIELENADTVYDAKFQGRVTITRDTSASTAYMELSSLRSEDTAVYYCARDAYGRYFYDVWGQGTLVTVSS VL: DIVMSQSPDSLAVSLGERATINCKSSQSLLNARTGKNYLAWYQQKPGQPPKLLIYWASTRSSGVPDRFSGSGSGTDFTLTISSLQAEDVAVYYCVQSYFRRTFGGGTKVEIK", "Kd, nM": 0.81}

Query block: GET /values?readout=Kd&item= Antibody No. V006 (ADI-67449) Fab (Fab, V domains shown, Fab by papain digestion of the IgG1) VH: QVQLVQSGAEVKKPGASVKVSCKASGFNDKDYYMHWVRQAPGQRLEWMGWIDLENAETIYDAKFQDRVTITRDTSASTAYMELSSLRSEDTAVYYCARDAYGRYFYDVWGQGTLVTVSS VL: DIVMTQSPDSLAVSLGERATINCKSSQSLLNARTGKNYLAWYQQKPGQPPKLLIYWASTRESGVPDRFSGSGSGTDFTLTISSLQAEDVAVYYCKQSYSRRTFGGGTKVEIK
Result block: 8.15

Query block: Now try Antibody No. V013 (ADI-70330) Fab (Fab, V domains shown, Fab by papain digestion of the IgG1) VH: QVQLVQSGAEVKKPGASVKVSCKASGFNIDDYYMHWVRQAPGQRLEWIGWIDLENANTVDDAKFQGRVTITRDTSASTAYMELSSLRSEDTAVYYCARDAYGRYFYDVWGQGTLVTVSS VL: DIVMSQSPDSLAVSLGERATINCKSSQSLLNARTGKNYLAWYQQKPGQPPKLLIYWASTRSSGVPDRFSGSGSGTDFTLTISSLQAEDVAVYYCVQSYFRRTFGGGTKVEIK .
Result block: 1.23
